Listed here: items and their measured pEC50.
Molecular target: T1, ZIKV prM/E polyprotein on virus-like particles (VLPs) from HEK293T/17 cells (Zika virus, UniProt A0A024B7W1 123-795)
T1 construct: also called ZIKV prM/E VLPs; Zika prM/E VLPs
Assay: MSD ECL, VLPs on plate
By convention, pEC50 is the negative base-10 log of a molar concentration.

See these solved cases before continuing.
Read off the recorded pEC50 for H4H25633P (antibody, V domains shown) VH: EVQLVESGGGLVQPGRSLRLSCAASGFTFDDYAIHWVRQAPGKGLEWVSGISWNSGYLGYADSVKGRFTISRDNAKNSLYLQMNSLRAEDTAFYYCAKDVAWGSVRHVFEIWGQGTMVTVSS VL: EIVLTQSPGTLSLSPGERATLSCRASQTITGNQLAWYQQKPGQAPRLLIYFTSSRATGIPDRFSGSGSGTDFSLTISRLEPEDFAVYFCQQFGYSPWTFGQGTKVEIK
9.40

Please list pEC50 recorded for the binder H4H25641P (antibody, V domains shown) VH: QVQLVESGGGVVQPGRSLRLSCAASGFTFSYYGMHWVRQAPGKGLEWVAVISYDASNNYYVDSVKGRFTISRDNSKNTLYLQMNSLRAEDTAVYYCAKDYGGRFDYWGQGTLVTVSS VL: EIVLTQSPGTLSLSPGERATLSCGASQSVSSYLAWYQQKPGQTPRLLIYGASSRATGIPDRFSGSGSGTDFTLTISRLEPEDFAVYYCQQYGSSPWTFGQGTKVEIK
8.54

// next entry
Quickly give me recorded pEC50 for H2aM25710N (antibody, V domains shown) VH: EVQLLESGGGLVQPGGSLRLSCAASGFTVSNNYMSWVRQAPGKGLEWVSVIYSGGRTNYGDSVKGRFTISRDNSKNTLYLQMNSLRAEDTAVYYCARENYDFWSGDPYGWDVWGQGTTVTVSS VL: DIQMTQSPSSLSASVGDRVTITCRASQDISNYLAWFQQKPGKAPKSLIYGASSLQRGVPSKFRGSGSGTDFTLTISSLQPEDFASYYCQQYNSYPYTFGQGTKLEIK
9.61

Each recorded value in this set is attributed to patent US20180016324A1.
